- methodNotes: Inhibition of erythropoietin-stimulated STAT5 expressed in human U2OS cells
propertyMeasured: pEC50
# pEC50: negative log10 of molar concentration; output just the value

**Q:** Give the measured pEC50 for Cc1cc(Nc2nc(N[C@@H](C)c3ncc(F)cn3)c(C#N)nc2C)[nH]n1
**A:** 7.40
